# Run Description: clinical
# Test Context: human, in vivo
Consider the following compounds and their measured Vd readings.
Give a bare numeral; the unit L/kg is implied.

A selection of reference data follows.
[[record]]
compound = "NS(=O)(=O)c1cc2c(cc1Cl)NCNS2(=O)=O [HYDROCHLOROTHIAZIDE]"
units_text = "L/kg"
measured_value = 0.83

[[record]]
compound = "CN(C)CCC=C1c2ccccc2COc2ccccc21 [DOXEPIN]"
units_text = "L/kg"
measured_value = 11.7

[[record]]
compound = "CCCOC(C(=O)OC1CCN(C)CC1)(c1ccccc1)c1ccccc1 [PROPIVERINE]"
units_text = "L/kg"
measured_value = 1.9

[[record]]
compound = "CCCN1CCCC[C@H]1C(=O)Nc1c(C)cccc1C [ROPIVACAINE]"
units_text = "L/kg"
measured_value = 0.55

[[record]]
compound = "CO/N=C(\\C(=O)N[C@@H]1C(=O)N2C(C(=O)O)=C(COC(C)=O)CS[C@H]12)c1csc(N)n1 [CEFOTAXIME]"
units_text = "L/kg"
measured_value = 0.28

[[record]]
compound = "CN1CCc2cccc3c2[C@H]1Cc1ccc(O)c(O)c1-3 [APOMORPHINE]"
units_text = "L/kg"
measured_value = 2

[[record]]
compound = "Cc1c(OCC(F)(F)F)ccnc1C[S+]([O-])c1nc2ccccc2[nH]1 (centres undefined) [LANSOPRAZOLE]"
units_text = "L/kg"
measured_value = 0.35

[[record]]
compound = "CCCCNC(=O)NS(=O)(=O)c1ccc(C)cc1 [TOLBUTAMIDE]"
units_text = "L/kg"
measured_value = 0.14


Vd for Cc1ccccc1N1C(=O)c2cc(S(N)(=O)=O)c(Cl)cc2NC1C (centres undefined) [METOLAZONE] is 1.61

Vd for Nc1cc(N2CCCCC2)nc(N)[n+]1[O-] [MINOXIDIL] is 3

Vd for O=C(O)c1ccccc1O [SALICYLIC ACID] is 0.17

Vd for NC(=O)c1cnccn1 [PYRAZINAMIDE] is 0.7

Vd for COc1ccc(Cl)cc1C(=O)NCCc1ccc(S(=O)(=O)NC(=O)NC2CCCCC2)cc1 [GLYBURIDE] is 0.14
